# Tested on: SW-620 colon
# procedure_text: NCI-60 one-dose screen, 48 h (100 = growth as untreated, 0 = no growth, -100 = all killed)
# applied_conditions: 10 µM unless noted
About 83,000 compounds went through this panel and 20% of them were active in at least one assay; those are over-represented in the sample as a whole.
test_readout: growth (%)
Give just the number in %; leave the unit off.

[Q] Consider the molecule shown here: CC(=O)Nc1cccc(Nc2nc(N[C@@H](C)c3ccccc3)c3ccccc3n2)c1 What is its recorded growth?
[A] 20.4

[Q] Consider the molecule shown here: COc1ccccc1-n1cc(C#N)c(N)c1C(=O)c1ccc(C)cc1 What is its recorded growth?
[A] 52.4

[Q] Entry Nc1ncc(-c2ccc3ncnc(Nc4cccc(Cl)c4F)c3c2)cn1 : reported growth = ?
[A] 91.1

[Q] // returns reported growth for input N#Cc1cccc(/C(N)=N/C(N)=N/c2nc3ccccc3s2)c1
[A] 22.9

[Q] Bench note: what growth did Cc1nc(-c2ccccc2O)ccc1C(=O)N=Nc1c(O)[nH]c2ccc(Br)cc12 show?
[A] 95.9

[Q] Consider the molecule Cn1ccnc1C(=O)/C=C/c1ccc(CNC(=O)c2c(F)c(F)c(F)c(F)c2F)cc1 and give its measured growth.
[A] 38.2

[Q] Param item = Oc1ccc(CSc2nnc(-c3ccc(Cl)cc3)n2-c2ccccc2)c2cccnc12 ; retrieve measured growth.
[A] 23.9

[Q] GET /values?readout=growth&item= C=C(C=O)[C@@H]1CC[C@]2(C)[C@H](CC=C3[C@H]4[C@@H](C)[C@H](C)CC[C@]4(C(=O)OC)CC[C@]32C)[C@@]1(C)CCC#N
[A] 0.12

[Q] Fill in the blank: the reported growth of COc1cc2c(cc1OC)C(Sc1ccc(C)cc1)c1c(nc(N)c(C#N)c1N)O2 (stereo not drawn) is ____.
[A] -36.6

[Q] I have this molecule here, CCOC(=O)c1c(N)c(C#N)cn1-c1cc(OC)c(OC)c(OC)c1 , and I need its recorded growth.
[A] 98.8

[Q] Returns the measured growth for the input molecule. Input: Cc1ccc(-c2cc3nc(C(Cl)Cl)nc(C)n3n2)cc1
[A] 107

[Q] If you can, please state the reported growth value of Cc1cc2ncc(-c3cc4ccccc4c(N4CCN(C)CC4)n3)nc2cc1C .
[A] 1.46

[Q] What does the data say about its growth? Entry: CNC(=O)c1cc(Oc2ccc3nc(NC(=O)c4cccc(OC(F)(F)F)c4)sc3c2)ccn1
[A] 103
